# TEST DESCRIPTION: Kinetic aqueous solubility
# PROTOCOL CONDITIONS: aqueous solubility; Table 9
READOUT KIND: Solubility (µM)
Record the value in µM, omitting the unit from your answer.

CC(C)(COC(=O)CBr)NC(=O)c1cc2cc([N+](=O)[O-])ccc2[nH]1 ... 56

Reported Solubility, compound COc1ccc(-c2ccc3c(C(=O)NC(C)(C)COC(=O)CCl)nn(C)c3c2)cc1 : ____
2.9

Reported Solubility, compound Cn1nc(C(=O)NC(C)(C)COC(=O)CCl)c2ccc(-c3cccc(Cl)c3)cc21 : ____
6.1

Reported Solubility, compound CC(C)Oc1ccc(-c2ccc3c(C(=O)NC(C)(C)COC(=O)CCl)nn(C)c3c2)cc1Cl : ____
7.8

Reported Solubility, compound Cn1nc(C(=O)NC(C)(C)COC(=O)CCl)c2ccc(-c3ccc4c(c3)OCO4)cc21 : ____
1.0

----------
# Tested on: HepG2 cells
# TEST DESCRIPTION: Cellular dose response assay, HepG2
# Type: cell-based, human
# PROTOCOL CONDITIONS: compounds alone; Table 7; read-out: IC50 (uM) HEPG2^a
READOUT KIND: IC50 (µM)
Record the value in µM, omitting the unit from your answer.

Cn1nc(C(=O)NC(C)(C)COC(=O)CCl)c2cc(Br)ccc21 ... 6.7
CC(C)(COC(=O)CCl)NC(=O)c1[nH]c2ccccc2c1Br ... 7.5
COC(=O)c1ccc([C@@H]2c3[nH]c4ccccc4c3C[C@@H](C(=O)OC)N2C(=O)CCl)cc1 [RSL3, reference compound] ... 5.4
CC(C)(COC(=O)CCl)NC(=O)c1nn(-c2ccccc2)c2ccccc12 ... 9.2
COc1ccc2cc(C(=O)NCC(C)(C)COC(=O)CBr)[nH]c2c1 ... 4.7

Reported IC50, compound O=C(CBr)OCCCNC(=O)c1cc2cc(Cl)ccc2[nH]1 : ____
1.9

Reported IC50, compound Cn1nc(C(=O)NC(C)(C)COC(=O)CBr)c2ccccc21 : ____
2.9

Reported IC50, compound Cn1nc(C(=O)NC(C)(C)COC(=O)CCl)c2cccc(OC(=O)CCl)c21 : ____
24.8

Reported IC50, compound Cn1nc(C(=O)NC(C)(C)COC(=O)CCl)c2ccccc21 : ____
26.2

Reported IC50, compound CC(C)(COC(=O)CCl)NC(=O)c1n[nH]c2cc(Br)ccc12 : ____
12.8

----------
# TESTED SYSTEM: panel of 44 targets (GPCRs, ion channels, enzymes, transporters, nuclear receptors) (Homo sapiens, UniProt P04150)
# Sequence (P04150 whole entry): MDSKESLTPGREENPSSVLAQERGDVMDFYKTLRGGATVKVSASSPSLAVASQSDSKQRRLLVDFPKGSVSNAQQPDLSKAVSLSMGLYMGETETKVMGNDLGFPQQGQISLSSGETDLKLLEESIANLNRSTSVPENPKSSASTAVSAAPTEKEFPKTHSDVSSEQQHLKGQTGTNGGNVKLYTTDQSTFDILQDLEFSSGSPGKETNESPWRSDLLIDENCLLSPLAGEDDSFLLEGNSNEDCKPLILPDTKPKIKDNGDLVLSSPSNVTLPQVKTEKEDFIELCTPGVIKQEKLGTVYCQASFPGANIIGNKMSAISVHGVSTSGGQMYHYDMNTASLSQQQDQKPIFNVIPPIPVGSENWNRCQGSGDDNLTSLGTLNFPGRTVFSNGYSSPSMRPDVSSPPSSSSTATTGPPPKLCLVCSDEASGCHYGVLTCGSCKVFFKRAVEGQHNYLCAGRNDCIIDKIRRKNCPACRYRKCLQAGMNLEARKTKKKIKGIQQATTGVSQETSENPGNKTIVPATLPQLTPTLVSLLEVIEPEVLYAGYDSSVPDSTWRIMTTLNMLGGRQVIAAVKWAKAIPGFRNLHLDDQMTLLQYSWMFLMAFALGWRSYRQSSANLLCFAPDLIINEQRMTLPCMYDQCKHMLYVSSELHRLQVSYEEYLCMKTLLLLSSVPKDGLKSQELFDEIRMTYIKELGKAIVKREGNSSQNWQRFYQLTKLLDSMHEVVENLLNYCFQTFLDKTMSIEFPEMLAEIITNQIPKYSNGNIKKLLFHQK
# PROTOCOL CONDITIONS: Glucocorticoid Receptor (Agonist); read-out: IC50 (M) Reference Compound (EC50 for agonist)
READOUT KIND: EC50 (M)
Record the value in M, omitting the unit from your answer.

Reported EC50, molecule C[C@@H]1C[C@H]2[C@@H]3C[C@H](F)C4=CC(=O)C=C[C@]4(C)[C@@]3(F)[C@@H](O)C[C@]2(C)[C@@]1(O)C(=O)SCF : ____
9.62e-09

----------
# TEST DESCRIPTION: in vitro
# Assay type: in vitro ADME, human
# PROTOCOL CONDITIONS: human, microsomes
# Protocol: […]. The incubation timepoints measured were 0, 5, 10, 15, 30, and 45 minutes. All samples were prepared in duplicate and analyzed by LC-MS/MS.
Measured Microsome Stability t1/2 (min) human, listed per entry.
Record the value in min, omitting the unit from your answer.

Example cases with answers are listed next.
Cn1nc(C(=O)NC(C)(C)COC(=O)CCl)c2ccc(-c3cccc(Cl)c3)cc21 ... 1.9
Cn1nc(C(=O)NC(C)(C)COC(=O)CCl)c2ccccc21 ... 2.9
Cn1nc(C(=O)NC(C)(C)CNC(=O)CCl)c2ccc(Br)cc21 ... 8.8

Reported Microsome Stability t1/2 (min) human, compound CC(C)Oc1ccc(-c2ccc3c(C(=O)NC(C)(C)COC(=O)CCl)nn(C)c3c2)cc1Cl : ____
49

Reported Microsome Stability t1/2 (min) human, compound COc1c(Cl)cc(-c2ccc3c(C(=O)NC(C)(C)C(C)(C)OC(=O)CCl)nn(C)c3c2)cc1Cl : ____
10.2

Reported Microsome Stability t1/2 (min) human, compound COC(=O)c1ccc([C@@H]2c3[nH]c4ccccc4c3C[C@@H](C(=O)OC)N2C(=O)CCl)cc1 [RSL3, reference compound] : ____
14

Reported Microsome Stability t1/2 (min) human, compound CC(C)(COC(=O)CCl)NC(=O)c1n[nH]c2cc(Br)ccc12 : ____
9.7

Reported Microsome Stability t1/2 (min) human, compound CC(OC(=O)CCl)C(C)(C)NC(=O)c1nn(C)c2cc(-c3ccc(N4CCOCC4)c(Cl)c3)ccc12 (racemic) : ____
8.6

Reported Microsome Stability t1/2 (min) human, compound COc1c(Cl)cc(-c2ccc3c(C(=O)NC(C)(C)C(C)OC(=O)CCl)nn(C)c3c2)cc1Cl (racemic) : ____
19.5

Reported Microsome Stability t1/2 (min) human, compound CC(C)(COC(=O)CBr)NC(=O)c1cc2cc([N+](=O)[O-])ccc2[nH]1 : ____
187

Reported Microsome Stability t1/2 (min) human, compound Cn1nc(-n2cc(C(C)(C)COC(=O)CCl)nn2)c2ccc(-c3ccc(N4CCOCC4)c(Cl)c3)cc21 : ____
28

Reported Microsome Stability t1/2 (min) human, compound COc1ccc(-c2ccc3c(C(=O)NC(C)(C)COC(=O)CCl)nn(C)c3c2)cc1 : ____
1.8

Reported Microsome Stability t1/2 (min) human, compound CC(C)(COC(=O)CCl)NC(=O)c1c[nH]c2cc(Br)ccc12 : ____
24

Reported Microsome Stability t1/2 (min) human, compound Cn1nc(C(=O)NC(C)(C)COC(=O)CCl)c2ccc(-c3ccc(OC(F)(F)F)c(Cl)c3)cc21 : ____
17

Reported Microsome Stability t1/2 (min) human, compound Cn1nc(C(=O)NC(C)(C)COC(=O)CCl)c2ccc(-c3ccc(Cl)c(Cl)c3)cc21 : ____
22

Reported Microsome Stability t1/2 (min) human, compound Cn1nc(C(=O)NC(C)(C)COC(=O)CCl)c2ccc(-c3ccc(Oc4ccccc4)c(Cl)c3)cc21 : ____
12

----------
# Tested on: SK-HEP-1 cells
# TEST DESCRIPTION: Cellular dose response assay, SK-HEP-1
# Type: cell-based, human
# PROTOCOL CONDITIONS: Homo sapiens, SK-HEP1, read-out: IC50 (uM) SKHEP1^a
READOUT KIND: IC50 (µM)
Record the value in µM, omitting the unit from your answer.

Reported IC50, compound Cn1nc(C(=O)NC(C)(C)COC(=O)CCl)c2ccc(Br)cc21 [QW-314] : ____
10.8

----------
# Tested on: HT-1080 cells
# TEST DESCRIPTION: Cellular dose response assay, HT-1080 with and without Fer-1
# Assay type: cell-based, human
# PROTOCOL CONDITIONS: with fer-1; Table 7; read-out: IC50 (uM) HT1080^b
# if measured IC50 < 30 µM: rule met  # else: rule not met

Cn1nc(C(=O)NC(C)(C)COC(=O)CCl)c2cc(Br)ccc21 ... rule not met
COC(=O)c1ccc([C@@H]2c3[nH]c4ccccc4c3C[C@@H](C(=O)OC)N2C(=O)CCl)cc1 [RSL3, reference compound] ... rule met
Cn1nc(C(=O)NC(C)(C)COC(=O)CBr)c2ccccc21 ... rule met
O=C(CBr)OCCCNC(=O)c1cc2cc(Cl)ccc2[nH]1 ... rule met

Answer whether the molecule Cn1nc(C(=O)NC(C)(C)COC(=O)CCl)c2cccc(OC(=O)CCl)c21 has IC50 strictly less than 30 µM
rule not met

Answer whether the molecule CC(C)(COC(=O)CCl)NC(=O)c1n[nH]c2cc(Br)ccc12 has IC50 strictly less than 30 µM
rule not met

Answer whether the molecule CC(C)(COC(=O)CCl)NC(=O)c1[nH]c2ccccc2c1Br has IC50 strictly less than 30 µM
rule met

Answer whether the molecule Cn1nc(C(=O)NC(C)(C)COC(=O)CCl)c2ccccc21 has IC50 strictly less than 30 µM
rule not met

Answer whether the molecule CC(C)(COC(=O)CCl)NC(=O)c1nn(-c2ccccc2)c2ccccc12 has IC50 strictly less than 30 µM
rule not met

Answer whether the molecule COc1ccc2cc(C(=O)NCC(C)(C)COC(=O)CBr)[nH]c2c1 has IC50 strictly less than 30 µM
rule met

----------
# TESTED SYSTEM: GPX4 (Homo sapiens, UniProt P36969)
# Sequence (P36969 28-197): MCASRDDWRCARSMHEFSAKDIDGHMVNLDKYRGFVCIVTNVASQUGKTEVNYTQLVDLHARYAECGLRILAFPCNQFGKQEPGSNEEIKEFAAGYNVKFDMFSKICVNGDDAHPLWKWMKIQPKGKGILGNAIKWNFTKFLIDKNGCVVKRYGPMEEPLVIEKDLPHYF
# TEST DESCRIPTION: GPX4 activity assay in cell lysates (NADPH-coupled)
# Type: biochemical
# Design: endogenous in cells; host or cells: A-673 cell lysate
# PROTOCOL CONDITIONS: 2.5 μM
READOUT KIND: GPX4% inhibition at 2.5 μM (%)
Record the value in %, omitting the unit from your answer.

Example cases with answers are listed next.
COc1ccc(-c2ccc3c(C(=O)NC(C)(C)COC(=O)CCl)nn(C)c3c2)c(Cl)c1Cl [QW-826] ... 66.2
COc1c(F)cc(-c2ccc3c(C(=O)NC(C)(C)COC(=O)CCl)nn(C)c3c2)cc1Cl [QW-802] ... 80.1
Cn1nc(C(=O)NC(C)(C)C(C)(C)OC(=O)CCl)c2ccc(-c3ccc(OC(F)(F)F)c(Cl)c3)cc21 [QW-759] ... 18.4

Reported GPX4% inhibition at 2.5 μM, compound Cn1nc(-c2nnc(C(C)(OC(=O)CCl)C(F)(F)F)o2)c2ccc(-c3ccc(N4CCOCC4)c(Cl)c3)cc21 (stereo not shown) [QW-700] : ____
−2.2
